tested on: MV4-11 cells; assay: Inhibition of MV4-11 cell proliferation (CellTiterGlo, 72 h); assay type: cell-based; details: Homo sapiens; 72 h growth inhibition
property: IC50 (nM)
Answers are plain numbers, in nM.

compound	IC50 / nM
COc1cc2ncnc(N3CCC(OC(=O)Nc4ccc(OC(C)C)cc4)CC3)c2cc1OC [Compound 3]	467
COc1cc2ncnc(N3CCC(NC(=O)Nc4ccc(OC5CCCC5)nc4)C3)c2cc1OC (centres unmarked) [Compound 45]	1100
CC(C)c1ccc(NC(=O)OC2CCN(c3ncnc4ccc(I)cc34)C2)cc1 (centres unmarked) [Compound 20]	262
COc1cc2ncnc(N3CCC(NC(=O)Nc4ccc(OC(C)C)cc4)CC3)c2cc1OC [Compound 58]	7
COc1cc2ncnc(N3CCC(N(C)C(=O)Nc4ccc(OC(C)C)cc4)C3)c2cc1OC (centres unmarked) [Compound 36]	3190
COc1cc2ncnc(N3CCC(NC(=O)Nc4ccc(Cl)cc4)CC3)c2cc1OC [Compound 61]	9400
COc1cc2ncc(C#N)c(N3CCC(OC(=O)Nc4ccc(C(C)C)cc4)CC3)c2cc1OC [Compound 42]	2100
COc1cc2ncnc(N3CCC(CNC(=O)Nc4ccc(C(C)C)cc4)CC3)c2cc1OC [Compound 18]	1300

For every item in the list below, what is its measured IC50?
1. CC(C)c1ccc(NC(=O)NC2CCN(c3ncnc4ccccc34)CC2)cc1 [Compound 63]
2. CC(C)c1ccc(NC(=O)NC2CCN(c3ncnc4cc(F)ccc34)CC2)cc1 [Compound 72]
3. CCN(CC)CC#Cc1ccc2ncnc(N3CCC(OC(=O)Nc4ccc(C(C)C)cc4)C3)c2c1 (centres unmarked) [Compound 17]
4. COc1cc2ncnc(N3CCC(OC(=O)Nc4ccc(OC5CCCC5)cc4)C3)c2cc1OC (centres unmarked) [Compound 54]
5. COc1cc2ncc(C#N)c(N3CCC(NC(=O)Nc4ccc(OC(C)C)cc4)C3)c2cc1OC (centres unmarked) [Compound 29]
6. COc1cc2ncnc(N3CCC(NC(=O)Nc4ccc(N5CCCC5)nc4)CC3)c2cc1OC [Compound 68]

Response:
1: 502; 2: 245; 3: 122; 4: 1500; 5: 1700; 6: 134

Look up IC50 for the entries below, preserving their order.
1. COCCOc1ccc2c(N3CCC(NC(=O)Nc4ccc(C(C)C)cc4)C3)ncnc2c1 (centres unmarked) [Compound 71]
2. COc1cc2ncnc(N3CCC(OC(=O)Nc4ccc(OC5CCC5)nc4)CC3)c2cc1OC [Compound 11]
3. CC(C)c1ccc(NC(=O)NC2CCN(c3ncnc4cc(F)ccc34)C2)cc1 (centres unmarked) [Compound 69]

Response:
1: 1; 2: 71; 3: 128

###

Exercise: state measured IC50 for each of the compounds provided.
system: MV4-11 cells; test: Inhibition of MV4-11 cell proliferation (CellTiterGlo, 72 h); assay type: cell-based; settings: Homo sapiens; 72 h growth inhibition
Give bare numbers, in µM.

Study these solved cases before continuing.
compound	assay-target	IC50, µM
COc1cc2ncnc(N3CCC(OC(=O)Nc4ccc(OC(C)C)cc4)C3)c2cc1OC (stereo not shown) [Compound 15]	MV4-11 cells	0.866
COc1cc2ncc(C#N)c(N3CCC(OC(=O)Nc4ccc(OC(C)C)cc4)C3)c2cc1OC (stereo not shown) [Compound 32]	MV4-11 cells	1.4

List reported IC50 for each of these compounds:
1. COc1cc2ncnc(N3CCC(OC(=O)Nc4ccc(OC5CCCC5)cc4)CC3)c2cc1OC [Compound 55]
2. COc1cc2ncnc(N3CCCCC3COC(=O)Nc3ccc(C(C)C)cc3)c2cc1OC (stereo not shown) [Compound 33]
3. COc1cc2ncnc(N3CCC(C(=O)Nc4ccc(OC(C)C)cc4)CC3)c2cc1OC [Compound 23]
4. COc1cc2ncnc(N3CCC(C(=O)Nc4cccc(OC(C)C)c4)CC3)c2cc1OC [Compound 30]

Response:
0.56
0.343
1.98
2.31

Hello, I would appreciate it if you could give IC50 for each entry below.
1. COc1ccc2c(N3CCC(NC(=O)Nc4ccc(C(C)C)cc4)CC3)ncnc2c1 [Compound 65]
2. COc1cc2ncc(C#N)c(N3CCC(NC(=O)Nc4ccc(C(C)C)cc4)C3)c2cc1OC (stereo not shown) [Compound 26]
3. COc1cc2ncnc(N3CCC(OC(=O)Nc4ccc(C(C)C)cc4)C3)c2cc1OC (stereo not shown) [Compound 2]

Response:
0.321
1.9
0.248

Working through the 3 compounds below one at a time, give IC50 for each.
1. CC(C)c1ccc(NC(=O)NC2CCN(c3ncnc4ccccc34)C2)cc1 (stereo not shown) [Compound 16]
2. COCCOc1ccc2c(N3CCC(NC(=O)Nc4ccc(C(C)C)cc4)CC3)ncnc2c1 [Compound 73]
3. COc1cc2ncnc(N3CCC(NC(=O)Nc4ccc(N5CCCC5)nc4)C3)c2cc1OC (stereo not shown) [Compound 46]

Response:
0.278
0.208
3.5

Batch lookup, IC50 per entry.
1. CC(C)c1ccc(NC(=O)OC2CCN(c3ccnc4ccccc34)CC2)cc1 [Compound 10]
2. COc1cc2ncnc(N3CCC(COC(=O)Nc4ccc(C(C)C)cc4)CC3)c2cc1OC [Compound 22]
3. COc1cc2ncnc(N3CCC(NC(=O)Nc4ccc(OC(C)C)cc4)C3)c2cc1OC (stereo not shown) [Compound 8]
4. COc1cc2ncc(C#N)c(N3CCC(OC(=O)Nc4ccc(C(C)C)cc4)C3)c2cc1OC (stereo not shown) [Compound 37]
5. COc1cc2ncnc(N3CCC(NC(=O)Nc4ccc(OC5CCC5)nc4)C3)c2cc1OC (stereo not shown) [Compound 44]
6. COc1cc2ncnc(N3CCC(NC(=O)Cc4ccc(C(C)C)cc4)C3)c2cc1OC (stereo not shown) [Compound 35]
7. COc1cc2ncnc(N3CCC(NC(=O)Nc4ccc(Oc5ccccc5)cc4)C3)c2cc1OC (stereo not shown) [Compound 51]

Response:
[1.1, 1.7, 1.88, 1.5, 1, 1.9, 1.2]

###

Exercise: for every item that follows, state its recorded pIC50.
molecular target: wild-type FLT3 phosphorylation in Baf3 FLT3 cells (Homo sapiens); construct: host or cells: Baf3 (murine B cell lymphoma line); assay: Cell-based FLT3 receptor ELISA; conditions: FLT ligand-induced FLT3 phosphorylation
Sequence (P36888 27-993): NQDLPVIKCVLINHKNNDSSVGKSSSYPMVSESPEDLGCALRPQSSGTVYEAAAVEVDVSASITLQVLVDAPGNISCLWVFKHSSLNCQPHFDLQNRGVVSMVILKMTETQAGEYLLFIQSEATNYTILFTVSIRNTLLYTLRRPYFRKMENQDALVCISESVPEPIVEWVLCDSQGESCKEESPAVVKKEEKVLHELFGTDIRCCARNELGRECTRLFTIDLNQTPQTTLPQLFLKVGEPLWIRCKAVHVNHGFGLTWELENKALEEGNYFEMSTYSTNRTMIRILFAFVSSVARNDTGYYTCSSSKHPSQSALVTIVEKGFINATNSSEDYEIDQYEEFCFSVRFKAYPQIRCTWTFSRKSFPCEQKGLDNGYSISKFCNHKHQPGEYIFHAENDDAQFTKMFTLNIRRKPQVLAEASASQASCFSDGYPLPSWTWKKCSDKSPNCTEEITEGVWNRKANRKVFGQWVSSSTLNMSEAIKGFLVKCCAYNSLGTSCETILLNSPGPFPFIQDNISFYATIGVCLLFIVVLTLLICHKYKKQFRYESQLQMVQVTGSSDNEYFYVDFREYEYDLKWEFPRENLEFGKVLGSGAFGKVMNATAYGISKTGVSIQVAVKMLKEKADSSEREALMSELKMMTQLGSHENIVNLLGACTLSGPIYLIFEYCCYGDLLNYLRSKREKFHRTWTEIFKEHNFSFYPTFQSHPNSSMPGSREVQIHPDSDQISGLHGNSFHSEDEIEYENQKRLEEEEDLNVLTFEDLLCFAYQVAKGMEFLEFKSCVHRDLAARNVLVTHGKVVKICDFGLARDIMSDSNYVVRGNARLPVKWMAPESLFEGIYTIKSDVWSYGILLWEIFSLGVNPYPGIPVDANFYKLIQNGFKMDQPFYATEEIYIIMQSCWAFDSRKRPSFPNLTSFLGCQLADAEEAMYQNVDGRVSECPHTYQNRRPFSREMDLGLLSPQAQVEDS
Numbers only, as −log10 of the molar value.

Study these solved cases before continuing.
compound	assay-target	pIC50
COc1cc2ncnc(N3CCC(OC(=O)Nc4ccc(C(C)C)cc4)C3)c2cc1OC (stereo not drawn)	wild-type FLT3 phosphorylation in Baf3 FLT3 cells (Homo sapiens)	7.19
COCCOc1ccc2c(N3CCC(NC(=O)Nc4ccc(C(C)C)cc4)C3)ncnc2c1 (stereo not drawn)	wild-type FLT3 phosphorylation in Baf3 FLT3 cells (Homo sapiens)	9.00
COc1cc2ncnc(N3CCC(NC(=O)Nc4ccc(N5CCCC5)cc4)CC3)c2cc1OC	wild-type FLT3 phosphorylation in Baf3 FLT3 cells (Homo sapiens)	7.74
COc1cc2ncnc(N3CCC(NC(=O)Nc4ccc(OC(C)C)cc4)CC3)c2cc1OC	wild-type FLT3 phosphorylation in Baf3 FLT3 cells (Homo sapiens)	6.74
CC(C)c1ccc(NC(=O)NC2CCN(c3ncnc4cc(OCCCN5CCN(C)CC5)ccc34)CC2)cc1	wild-type FLT3 phosphorylation in Baf3 FLT3 cells (Homo sapiens)	9.00
COc1cc2ncnc(N3CCC(NC(=O)Nc4ccc(OC(C)C)cc4)C3)c2cc1OC (stereo not drawn)	wild-type FLT3 phosphorylation in Baf3 FLT3 cells (Homo sapiens)	6.44

For every listed record, write down its pIC50.
1. COc1cc2ncnc(N3CCC(NC(=O)Nc4ccc(N(C)C)cc4)CC3)c2cc1OC
2. COc1cc2ncnc(N3CCC(NC(=O)Nc4ccc(C(C)C)cc4)CC3)c2cc1OC
3. COc1cc2ncnc(N3CCC(COC(=O)Nc4ccc(C(C)C)cc4)CC3)c2cc1OC
4. COc1cc2ncnc(N3CCC(OC(=O)Nc4ccc(OC(C)C)cc4)C3)c2cc1OC (stereo not drawn)
5. COc1cc2ncnc(N3CCCC(OC(=O)Nc4ccc(C(C)C)cc4)C3)c2cc1OC (stereo not drawn)
6. COc1cc2ncnc(N3CCC(CC(=O)Nc4ccc(C(C)C)cc4)C3)c2cc1OC (stereo not drawn)

Response:
1. 7.80
2. 9.00
3. 7.09
4. 6.49
5. 5.96
6. 7.34

Items follow; give pIC50 for each.
1. COc1cc2ncnc(N3CCC(NC(=O)Nc4ccc(N5CCCC5)nc4)CC3)c2cc1OC
2. CC(C)c1ccc(NC(=O)NC2CCN(c3ncnc4ccccc34)C2)cc1 (stereo not drawn)

Response:
1: 7.80; 2: 6.62

State the recorded pIC50 for every item in the following list.
1. CC(C)c1ccc(NC(=O)NC2CCN(c3ncnc4ccccc34)CC2)cc1
2. COc1cc2ncc(C#N)c(N3CCC(OC(=O)Nc4ccc(OC(C)C)cc4)C3)c2cc1OC (stereo not drawn)
3. COc1cc2ncnc(N3CCC(NC(=O)Nc4ccc(N5CCOCC5)cc4)CC3)c2cc1OC
4. COc1cc2ncc(C#N)c(N3CCC(NC(=O)Nc4ccc(C(C)C)cc4)C3)c2cc1OC (stereo not drawn)
5. COc1cc2ncc(C#N)c(N3CCC(NC(=O)Nc4ccc(OC(C)C)cc4)C3)c2cc1OC (stereo not drawn)
6. COc1cc2ncnc(N3CCC(C(=O)Nc4ccc(OC(C)C)cc4)CC3)c2cc1OC

Response:
7.70
5.92
7.37
6.48
5.51
6.76

State recorded pIC50 for all listed compounds.
1. COc1cc2ncnc(N3CCCC(COC(=O)Nc4ccc(C(C)C)cc4)C3)c2cc1OC (stereo not drawn)
2. CC(C)c1ccc(NC(=O)OC2CCN(c3ncnc4ccc(C#CCO)cc34)C2)cc1 (stereo not drawn)

Response:
1: 8.22; 2: 8.40
